System: MDA-MB-231 breast
Experiment: NCI-60 one-dose screen, 48 h (100 = growth as untreated, 0 = no growth, -100 = all killed)
Details: 10 µM unless noted
The panel holds about 83,000 compounds, 20% with a hit somewhere; the sample as a whole holds those more often.
# strict inequality: growth < 70% yields criterion met, everything else yields criterion not met

>>> df
                            chemical_string        label_class
0  Clc1cc(Cl)cc(-c2ccc(-c3ccc(/C=N/NC4=NCCN4)cc3)s2)c1      criterion met
1  O=C([O][Sn]([O]C(=O)c1ccccn1)([c]1ccccc1)[c]1ccccc1)c1ccccn1  criterion not met
2  COc1ccc(C(=O)N2NC(=O)/C(=C/c3ccc(Br)cc3)N=C2c2ccccc2)cc1  criterion not met
3  Cc1cc(N/N=C/c2nc(-c3ccccc3)oc2C)c2cc(Br)ccc2n1      criterion met
4       CC(=O)Nc1ccc(/C=C/C(=O)c2ccccc2)cc1  criterion not met
5  Cc1nn(-c2ccc([N+](=O)[O-])cc2)c2ncnc(NCCc3ccccc3)c12  criterion not met

Request: Does the reported growth of the following molecule sit strictly below 70%? COc1ccc(S(=O)(=O)Nc2cc(/C=C\c3cc(OC)c(OC)c(OC)c3)cc(OC)c2OC)cc1
Result: criterion met

Request: Is the reported growth for O=C(Nc1ccncc1)C(=O)c1cn(S(=O)(=O)c2ccccc2F)c2ccccc12 strictly below 70%?
Result: criterion met

====

System: NCI-H226 lung
Assay: NCI-60 one-dose screen, 48 h (100 = growth as untreated, 0 = no growth, -100 = all killed)
Conditions: 10 µM unless noted
Procedure: Growth inhibition of the NCI-H226 human Non-Small Cell Lung tumor cell line is measured as a screen for anti-cancer activity. Cells are grown in 96 well plates and exposed to the test compound for 48 hours. Compounds are tested at a single concentration, which is 10^-5 M for most compounds. The reported endpoint is percent growth (GI% or GIPRCNT), where numbers from 0 - 100% represent growth inhibition, and numbers from -100% - 0 represent cell death. […]
About 83,000 compounds went through this panel and 20% of them were active in at least one assay; those are over-represented in the sample as a whole.
Measurement label: growth (%)
One number for each entry, in %.

Some compounds with recorded growth:
In [3]: df
Out[3]:
                                   compound  target_under_test  unit_info  assay_value
0  CCOC(=O)C1C(=O)C=C(c2ccc(OC)cc2)CC1c1sc(N(C)Cc2ccccc2)nc1Cl (stereo not given)      NCI-H226 lung          %         82.6
1  CC(C)(C)n1cc(-c2ccnc(NCCCNS(=O)(=O)c3ccc(C(F)(F)F)cc3)c2)c(-c2cccc(O)c2)n1      NCI-H226 lung          %           42
2  CN1C=CN(Cc2ccc(-c3ccccn3)nc2)[CH-]1.CN1C=CN(Cc2ccc(-c3ccccn3)nc2)[CH-]1.[Au+3]      NCI-H226 lung          %         66.7
3  Cc1nn(-c2ccc([N+](=O)[O-])cc2)c2ncnc(NCCc3ccccc3)c12      NCI-H226 lung          %         97.8
4  C=C1CCC2C3(C)COC(c4ccc(N(C)C)cc4)OC3CCC2(C)C1C/C=C1/C(=O)OCC1O (stereo not given)      NCI-H226 lung          %          109
5  COc1ccc(Nc2ncccc2C(=O)NCc2cn(Cc3cccc(Oc4ccccc4)c3)nn2)c(OC)c1      NCI-H226 lung          %         73.5

Batch lookup, growth per entry.
1. COc1ccc(CN2CCc3c(Sc4ccccc4)nc(N)nc3C2=O)c(OC)c1
2. O=c1c2sc3ncccc3c2nnn1-c1ccccc1
3. Cc1ccc(S(=O)(=O)NCCNc2nccc(-c3c(-c4cccc(N)c4)nc4sccn34)n2)cc1
4. O=C(O)c1cn(C2CC2)c2cc(N3CCN(C(=O)/C=C/c4ccc(Cl)cc4)CC3)c(F)cc2c1=O
5. C=C1CCC2C3(C)COC(C)(C)OC3CCC2(C)C1C/C=C1/C(=O)OCC1Oc1ccccc1OC (stereo not given)
6. COc1ccc(Nc2[nH]n3c(=O)cc(-c4ccccc4)nc3c2C(=O)Nc2ccc(C)cc2)c(OC)c1
7. Nc1nc(=O)c2ccccc2s1
8. O=C1CCCCC1(c1ccccc1)c1ccccc1

Result:
1: 67.6; 2: 100; 3: 79.6; 4: 91.5; 5: 79.7; 6: 87.4; 7: 112; 8: 99.8

Take each entry in turn and give its growth.
1. C=C1CCC[C@]2(C)CCC[C@H](C)[C@@H](OC(C)=O)[C@@H]3OC(=O)C(=C)[C@@H]3C[C@H]1O2
2. O=C(NNC(=O)N1c2ccccc2C=Cc2ccccc21)c1ccc2ccccc2c1
3. COc1ccc(S(=O)(=O)Nc2cc(/C=C\c3cc(OC)c(OC)c(OC)c3)cc(OC)c2OC)cc1
4. N=C(N)c1ccc(-c2ccc(-c3ccc(-c4cccs4)s3)s2)cc1

Result:
1. 78.6
2. 95.5
3. 35.2
4. 93.4

Record growth for all entries; do not skip any.
1. COc1ccc2c(c1)[nH]c(=O)c1c3cc(C)c(C)cc3cn21
2. C=C[C@@H]1C[C@@H]2Cc3ccccc3N1O2

Result:
1. 37
2. 109
